Entry source: ChEMBL document CHEMBL5303573

- ASSAY SETUP: victivallis vadensis, 12 h, 2 µM
- Description: The drug is tested on Victivallis vadensis strain: ATCC BAA-548 for biotransformation. The drug concentrations were measured before and after a 12-h incubation by liquid-chromatography-coupled mass spectrometry (LC–MS)
ENDPOINT LABEL: Bacterial Biotransformation

Examples with answers:
COMPOUND	Bacterial Biotransformation
CCC(COC(=O)c1cc(OC)c(OC)c(OC)c1)(c1ccccc1)N(C)C.O=C(O)/C=C\C(=O)O (stereo unspecified)	Compound metabolized
O=C(O[C@H]1C[C@H]2CC[C@@H](C1)[N+]21CCCC1)C(O)(c1ccccc1)c1ccccc1.[Cl-] [TROSPIUM CHLORIDE]	Compound NOT metabolized
CN1CCc2cccc3c2[C@H]1Cc1ccc(O)c(O)c1-3	Compound NOT metabolized
CCOc1ccc2nc(S(N)(=O)=O)sc2c1 [ETHOXZOLAMIDE]	Compound metabolized
COc1ccc2cc([C@H](C)C(=O)O)ccc2c1	Compound NOT metabolized

Field: next compound
Incoming: Need Bacterial Biotransformation, item C#C[C@]1(OC(C)=O)CC[C@H]2[C@@H]3CCC4=CC(=O)CC[C@@H]4[C@H]3CC[C@@]21C [NORETHINDRONE ACETATE]
Outgoing: Compound NOT metabolized

----------
- ASSAY SETUP: bacteroides thetaiotaomicron, 12 h, 2 µM
- Description: The drug is tested on Bacteroides thetaiotaomicron strain: 7330 for biotransformation. The drug concentrations were measured before and after a 12-h incubation by liquid-chromatography-coupled mass spectrometry (LC–MS)
ENDPOINT LABEL: Bacterial Biotransformation

// known answers, use as guide
COMPOUND	Bacterial Biotransformation
CC(=O)Nc1ccc(OC(C)=O)cc1 [DIACETAMATE]	Compound metabolized
CCN(CC)CC#CCOC(=O)C(O)(c1ccccc1)C1CCCCC1.Cl (stereo unspecified) [OXYBUTYNIN CHLORIDE]	Compound NOT metabolized
CC(C)C[C@H]1C(=O)N2CCC[C@H]2[C@]2(O)O[C@](NC(=O)[C@@H]3C=C4c5cccc6[nH]c(Br)c(c56)C[C@H]4N(C)C3)(C(C)C)C(=O)N12.CS(=O)(=O)O [BROMOCRIPTINE MESYLATE]	Compound metabolized
CC(C)OC(=O)C(C)(C)Oc1ccc(C(=O)c2ccc(Cl)cc2)cc1 [FENOFIBRATE]	Compound NOT metabolized
O=C(O[C@H]1C[C@H]2CC[C@@H](C1)[N+]21CCCC1)C(O)(c1ccccc1)c1ccccc1.[Cl-] [TROSPIUM CHLORIDE]	Compound NOT metabolized

Incoming: Given "COc1ccc2c(c1)c(CC(=O)O)c(C)n2C(=O)c1ccc(Cl)cc1" , state its recorded Bacterial Biotransformation.
Outgoing: Compound metabolized

Incoming: Please answer likewise for "CN1CCC(OC(c2ccccc2)c2ccccc2)CC1"
Outgoing: Compound NOT metabolized

Incoming: Okay, and "C#C[C@]1(O)CC[C@H]2[C@@H]3CCC4=Cc5oncc5C[C@]4(C)[C@H]3CC[C@@]21C" ?
Outgoing: Compound metabolized

----------
- ASSAY DETAILS: The drug is tested on Odoribacter splanchnicus strain: fecal isolate for biotransformation. The drug concentrations were measured before and after a 12-h incubation by liquid-chromatography-coupled mass spectrometry (LC–MS)
- ASSAY SETUP: 2 µM
ENDPOINT LABEL: Bacterial Biotransformation

Please review the entries below; each comes with its answer.
COMPOUND	ENDPOINT LABEL	MEASURED RESULT
CC(=O)CC(c1ccccc1)c1c(O)c2ccccc2oc1=O (stereo not drawn)	Bacterial Biotransformation	Compound NOT metabolized
CC12CC3CC(C)(C1)CC(N)(C3)C2 [MEMANTINE]	Bacterial Biotransformation	Compound NOT metabolized
C[C@@H]1CC[C@H]2[C@@H](C)C(=O)O[C@@H]3O[C@@]4(C)CC[C@@H]1[C@]32OO4	Bacterial Biotransformation	Compound metabolized
N[C@@H](Cc1ccc(N(CCCl)CCCl)cc1)C(=O)O	Bacterial Biotransformation	Compound metabolized
CCOC(=O)[C@H](CCc1ccccc1)N[C@@H](C)C(=O)N1CCC[C@H]1C(=O)O.O=C(O)/C=C\C(=O)O [ENALAPRIL MALEATE]	Bacterial Biotransformation	Compound NOT metabolized

Incoming: Return reported Bacterial Biotransformation; argument: "COc1ccc2c3c1O[C@H]1C[C@@H](O)C=C[C@@]31CCN(C)C2"
Outgoing: Compound NOT metabolized

Incoming: What would you report for "Cc1nc(Nc2ncc(C(=O)Nc3c(C)cccc3Cl)s2)cc(N2CCN(CCO)CC2)n1.O" ?
Outgoing: Compound NOT metabolized

Incoming: What do you have for COc1cc2nc(N3CCN(C(=O)C4COc5ccccc5O4)CC3)nc(N)c2cc1OC.CS(=O)(=O)O (stereo not drawn) [DOXAZOSIN MESYLATE] ?
Outgoing: Compound NOT metabolized

----------
- ASSAY DETAILS: The drug is tested on Bifidobacterium longum subsp. Infantis strain: CCUG52486 for biotransformation. The drug concentrations were measured before and after a 12-h incubation by liquid-chromatography-coupled mass spectrometry (LC–MS)
- ASSAY SETUP: 2 µM
Non-standard residues stand in square brackets, D forms with d. Residues, ends and D or L forms follow the SMILES beside them. pGlu = O=C1CC[C@@H](C(=O)O)N1; Thz = O=C(O)[C@@H]1CSCN1
ENDPOINT LABEL: Bacterial Biotransformation

Answered examples (5):
COMPOUND	MEASURED RESULT
CCN(CC)C(=O)C1(c2ccccc2)CC1CN (stereo not drawn)	Compound NOT metabolized
OC(CCN1CCCCC1)(c1ccccc1)C1CC2C=CC1C2 (stereo not drawn) [BIPERIDEN]	Compound NOT metabolized
N#Cc1ccc(C(c2ccc(C#N)cc2)n2cncn2)cc1 [LETROZOLE]	Compound NOT metabolized
CN1CCC[C@@H]1CCO[C@](C)(c1ccccc1)c1ccc(Cl)cc1.O=C(O)/C=C/C(=O)O [CLEMASTINE FUMARATE]	Compound NOT metabolized
COC1=CC(=O)C[C@@H](C)[C@]12Oc1c(Cl)c(OC)cc(OC)c1C2=O [GRISEOFULVIN]	Compound NOT metabolized

Incoming: Return reported Bacterial Biotransformation; argument: CC(C)C[C@H]1C(=O)N2CCC[C@H]2[C@]2(O)O[C@](NC(=O)[C@@H]3C=C4c5cccc6[nH]c(Br)c(c56)C[C@H]4N(C)C3)(C(C)C)C(=O)N12.CS(=O)(=O)O [BROMOCRIPTINE MESYLATE]
Outgoing: Compound metabolized

Incoming: Same for CC(=O)Oc1ccc(C(c2ccc(OC(C)=O)cc2)c2ccccn2)cc1 [BISACODYL]
Outgoing: Compound metabolized

Incoming: Okay, and O=C1CC[C@@H](C(=O)N2CSC[C@H]2C(=O)O)N1 [PIDOTIMOD] ([pGlu]-[Thz]-OH) ?
Outgoing: Compound NOT metabolized

----------
- ASSAY DETAILS: The drug is tested on Blautia hansenii strain: DSM20583 for biotransformation. The drug concentrations were measured before and after a 12-h incubation by liquid-chromatography-coupled mass spectrometry (LC–MS)
- ASSAY SETUP: 2 µM
ENDPOINT LABEL: Bacterial Biotransformation

MOLECULE	MEASURED RESULT
CC(=O)O[C@]1(C(C)=O)CC[C@H]2[C@@H]3C=C(Cl)C4=CC(=O)[C@@H]5C[C@@H]5[C@]4(C)[C@H]3CC[C@@]21C [CYPROTERONE ACETATE]	Compound metabolized
COc1ccccc1OCC(O)COC(N)=O (stereo not given) [METHOCARBAMOL]	Compound NOT metabolized
O=C1C(CC[S+]([O-])c2ccccc2)C(=O)N(c2ccccc2)N1c1ccccc1 (stereo not given) [SULFINPYRAZONE]	Compound NOT metabolized
CCCC(C)(COC(N)=O)COC(=O)NC(C)C (stereo not given) [CARISOPRODOL]	Compound metabolized
CCCc1nn(C)c2c(=O)[nH]c(-c3cc(S(=O)(=O)N4CCN(C)CC4)ccc3OCC)nc12.O=C(O)CC(O)(CC(=O)O)C(=O)O [SILDENAFIL CITRATE]	Compound metabolized
Cc1nc(Nc2ncc(C(=O)Nc3c(C)cccc3Cl)s2)cc(N2CCN(CCO)CC2)n1.O [DASATINIB]	Compound metabolized
C=CCc1ccccc1OCC(O)CNC(C)C (stereo not given) [ALPRENOLOL]	Compound NOT metabolized
CC(C)C[C@H]1C(=O)N2CCC[C@H]2[C@]2(O)O[C@](NC(=O)[C@@H]3C=C4c5cccc6[nH]c(Br)c(c56)C[C@H]4N(C)C3)(C(C)C)C(=O)N12.CS(=O)(=O)O [BROMOCRIPTINE MESYLATE]	Compound metabolized
O=C([O-])C[C@H](O)C[C@H](O)/C=C/c1c(C2CC2)nc2ccccc2c1-c1ccc(F)cc1.O=C([O-])C[C@H](O)C[C@H](O)/C=C/c1c(C2CC2)nc2ccccc2c1-c1ccc(F)cc1.[Ca+2] [PITAVASTATIN CALCIUM]	Compound NOT metabolized
CO[C@]12C[C@@H](COC(=O)c3cncc(Br)c3)CN(C)[C@@H]1Cc1cn(C)c3cccc2c13 [NICERGOLINE]	Compound NOT metabolized

Incoming: So what's the measured Bacterial Biotransformation for this one? OC(CCN1CCCCC1)(c1ccccc1)C1CCCCC1 (stereo not given) [TRIHEXYPHENIDYL]
Outgoing: Compound metabolized

Incoming: Another molecule: O=C1CC2(CCCC2)CC(=O)N1CCCCN1CCN(c2ncccn2)CC1 [BUSPIRONE]
Outgoing: Compound NOT metabolized

Incoming: Also, CC(C(=O)O)c1ccc2c(c1)Cc1cccnc1O2 (stereo not given) [PRANOPROFEN] please.
Outgoing: Compound metabolized

Incoming: Can you check Nc1nc(N)nc(-c2cc(Cl)ccc2Cl)n1.O=C(O)/C=C\C(=O)O [IRSOGLADINE MALEATE] next?
Outgoing: Compound NOT metabolized

Incoming: Now the same for CC1Cc2ccccc2N1NC(=O)c1ccc(Cl)c(S(N)(=O)=O)c1 (stereo not given) [INDAPAMIDE]
Outgoing: Compound NOT metabolized
